Recorded values, source patent US20110039770A1.

- measurement-target: T1, PKC-δ (purified isoform)
- T1 construct: also called PKC-delta
- T1 sequence (Q05655 whole entry, stated change not applied, canonical isoform): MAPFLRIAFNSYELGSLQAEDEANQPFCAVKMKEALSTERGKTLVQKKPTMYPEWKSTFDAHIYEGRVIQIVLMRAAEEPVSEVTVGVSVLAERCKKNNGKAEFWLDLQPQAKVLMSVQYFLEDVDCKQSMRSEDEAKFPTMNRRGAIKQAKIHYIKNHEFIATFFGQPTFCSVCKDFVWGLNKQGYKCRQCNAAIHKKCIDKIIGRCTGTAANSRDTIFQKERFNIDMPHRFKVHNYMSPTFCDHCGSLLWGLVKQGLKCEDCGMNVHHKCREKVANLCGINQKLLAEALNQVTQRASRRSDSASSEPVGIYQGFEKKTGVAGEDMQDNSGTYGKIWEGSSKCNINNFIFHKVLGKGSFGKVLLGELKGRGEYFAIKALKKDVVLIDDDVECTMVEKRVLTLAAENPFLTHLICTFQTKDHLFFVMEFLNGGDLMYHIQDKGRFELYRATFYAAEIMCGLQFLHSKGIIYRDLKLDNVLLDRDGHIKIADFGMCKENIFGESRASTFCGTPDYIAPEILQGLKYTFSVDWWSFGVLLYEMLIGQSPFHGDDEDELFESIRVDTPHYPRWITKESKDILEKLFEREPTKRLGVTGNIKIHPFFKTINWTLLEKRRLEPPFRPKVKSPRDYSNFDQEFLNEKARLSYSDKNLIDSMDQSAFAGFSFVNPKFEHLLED
- test: competitive ELISA, coated purified PKC-δ, vs anti-PKC δ (SC-213); PRE 200 µM
- Protocol: Greiner 96 well ELISA plates were coated with the appropriate PKC isoform diluted in PBSN (PBS with Calcium/Magnesium+0.05% Sodium azide w/w). 50 μL/well at 250 ng/mL was used. Control wells contained PBSN only. Plates were incubated overnight at 4° C. The plates were washed 3 times with 200 μL of dH₂O per well, then 100 μL of blocking solution was added per well and the plate incubated for 1 h at 37° C. […]
measurement-name: relative binding capacity (100-%n, DMSO subtracted) (%)
Give just the numeric value; % need not be written.

Some binders with recorded relative binding capacity (100-%n, DMSO subtracted):
Ac-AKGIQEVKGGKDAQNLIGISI-NH2 (also called peptide PRE 5) [PRE 5] | 4.31
Ac-ISIGILQNADK-NH2 (also called peptide PRE 7) [PRE 7] | 0
RRKKGGKDFVVKR (also called peptide PRE 1; peptide recognition element 1) [PRE 1] | 49.4

stdin: What relative binding capacity (100-%n, DMSO subtracted) value was documented for this binder, Ac-KDANQLIGISI-NH2 (also called peptide PRE 6) [PRE 6] ?
stdout: 14
